Test system: Wolbachia pipientis
Assay: Anti-Wolbachia Cell-Based Screen
Format: functional
Design: scale not given: in the data most compounds retested in dose-response had high values
Details: 5 µM
The campaign covered roughly 48,000 compounds. About 13,000 (27%) showed an effect of 50% or more. The list shows a part of the results.
Would you kindly list Percent Effect for each of these molecules?
Express your answer as a number followed by its unit.

I would be grateful if you could provide Percent Effect for each of the following entries.
1. Cc1ncccc1CNc1ccc(OCCO)nc1
2. Nc1nccc(C2CCN(c3cnccn3)C2)n1 (centres undefined)

1. -18.76%
2. 100.6%

I would be grateful if you could provide Percent Effect for each of the following entries.
1. CC(C)C(O)C1(CNC(=O)Nc2ccc(CN3CCOC3=O)cc2)CC1 (centres undefined)
2. CCc1csc(CNC2CCN(Cc3ccccc3)C2)n1 (centres undefined)
3. CCOCCN1CCN(Cc2nnc(-c3occc3C)o2)CC1
4. CCNc1cc2c(nn1)CCN(C(=O)C(C)c1c(C)noc1C)C2 (centres undefined)
5. NC(=O)CN(C(=O)c1cccc(C(F)(F)F)c1)C1CCCC1
6. CCNc1cc2c(nn1)CCN(C(=O)CCc1c(C)noc1Cl)C2

1. -15.4%
2. -41.87%
3. -3.196%
4. 124.9%
5. -15.86%
6. 92.82%

I would be grateful if you could provide Percent Effect for each of the following entries.
1. COCCN(Cc1noc(-c2ccc(OC)cc2)n1)C1CC1
2. O=C1OCCC1N1CCN(c2cnccn2)CC1 (centres undefined)
3. CN(C)C(=O)COC[C@@]12CCC[C@@H]1CN(C1CCC1)C2.O=C(O)C(F)(F)F

["20.29%", "-13.03%", "4.654%"]

I would be grateful if you could provide Percent Effect for each of the following entries.
1. Cc1noc(Cl)c1CCC(=O)N1CCc2sccc2C1
2. c1ccc(C2CCN(c3cncc(-n4cccn4)n3)CC2)cc1
3. OC1(CN2CCCC2)COCCN(c2noc(-c3ccccc3)n2)C1 (centres undefined)
4. Cc1ccc(-c2nc(C(=O)N3CCCCC3CNS(C)(=O)=O)cs2)cc1 (centres undefined)

4.589%
-3.284%
-20.3%
5.411%
